Kindly state half-life for each of the entries shown.
Test: Metabolic stability in mouse liver microsomes assessed as half life measured up to 120 mins by LC-MS/MS analysis
Assay type: ADME, Microsome
Answers are plain numbers, in min.

Below: 5 compounds and their reported half-life.
compound="CNC(=O)c1cnc(Nc2ccc(C(=O)N(C)C3CCN(c4ccc5c(c4)C(=O)N(C4CCC(=O)NC4=O)C5=O)CC3)cn2)cc1Nc1cccc(-c2ncc(F)cn2)c1OC (stereo unspecified)" property=half-life value_observed=41
compound="CNC(=O)c1cnc(Nc2ccc(C(=O)NCCCCCNc3ccc4c(c3)C(=O)N(C3CCC(=O)NC3=O)C4=O)cn2)cc1Nc1cccc(-c2ncc(F)cn2)c1OC (stereo unspecified)" property=half-life value_observed=15
compound="CNC(=O)c1cnc(NC2CCN(CC3CCN(c4ccc5c(c4)C(=O)N(C4CCC(=O)NC4=O)C5=O)CC3)CC2)cc1Nc1cccc(-c2ncc(F)cn2)c1OC (stereo unspecified)" property=half-life value_observed=62
compound="CNC(=O)c1cnc(Nc2ccc(C(=O)NC3CCC(Nc4ccc5c(c4)C(=O)N(C4CCC(=O)NC4=O)C5=O)CC3)cn2)cc1Nc1cccc(-c2ncc(F)cn2)c1OC (stereo unspecified)" property=half-life value_observed=101
compound="CNC(=O)c1cnc(Nc2ccc(C(=O)N3CC4(C3)CN(c3ccc5c(c3)C(=O)N(C3CCC(=O)NC3=O)C5=O)C4)cn2)cc1Nc1cccc(-c2ncc(F)cn2)c1OC (stereo unspecified)" property=half-life value_observed=104

Okay, next one:
Exam item: Find the recorded half-life belonging to CNC(=O)c1cnc(Nc2ccc(C(=O)NCCCCNc3cccc4c3C(=O)N(C3CCC(=O)NC3=O)C4=O)cn2)cc1Nc1cccc(-c2ncc(F)cn2)c1OC (stereo unspecified) and report it.
Marked response: 24

Origin of measurements: ChEMBL document CHEMBL6109122
